tested on: MCF7; assay: NCI tumour cell line growth inhibition, 48 h
The source made the active and inactive calls. Rule as the data show it: active = GI50 up to about 1.1 µM and inactive = higher.
Pick one and only one: active, inactive

[
  {
    "Compound": "COc1cccc(CCNC(=O)Cc2ccccc2CCO)c1",
    "Classification": "inactive"
  },
  {
    "Compound": "CC[C@]1(O)CC(OC2CC(N(C)C)C(O)C(C)O2)c2c(cc3c(c2O)C(=O)c2c(O)cccc2C3=O)[C@@H]1C(=O)OC (stereo not given in full)",
    "Classification": "active"
  },
  {
    "Compound": "C/C(=N/NC(=S)N1CC2CCC(CC2)C1)c1cnccn1",
    "Classification": "active"
  },
  {
    "Compound": "CCOC(=O)C(NC(=O)c1ccco1)(Nc1nc2ccc(OCC)cc2s1)C(F)(F)F (stereo not given)",
    "Classification": "inactive"
  },
  {
    "Compound": "CC(=O)NC(Cc1ccc(O)cc1)C(=O)O (stereo not given)",
    "Classification": "inactive"
  }
]

What call does the record list for COc1cc(C2S/C(=C/c3ccccc3)C(=O)N2c2ccccc2Cl)cc(OC)c1OC (stereo not given) ?
inactive

What call does the record list for `CC(C)(CO)CNc1cc(Cl)nc(N)n1` ?
inactive

What call does the record list for `Brc1ccccc1/C=N\C12CC3CC(CC(C3)C1)C2` ?
inactive

What call does the record list for CC(=O)Oc1ccc(/C=C/C(=O)NCC(NC(=O)/C=C/c2ccc(OC(C)=O)c(OC(C)=O)c2)C(=O)O)cc1OC(C)=O (stereo not given) ?
inactive

What call does the record list for CCSC1=CC2(O)N(CCc3ccc(OC)c(OC)c3)C(=O)CC2(C(=O)OC)CC1=O (stereo not given) ?
inactive

* * *

Listed here: items and their measured GI50.
test system: OVCAR-3; experiment: NCI tumour cell line growth inhibition, 48 h
The source made the active and inactive calls. Cut-off read from the data, not from the text of the source: active = GI50 up to about 1.1 µM and inactive = higher.

[
  {
    "Compound": "CC(C)OC(=O)c1ccc(CCC2=CC(=O)C(Br)=CC2=O)cc1",
    "GI50": "14.8 µM (inactive)"
  },
  {
    "Compound": "CCSC1=CC2(O)N(CCc3ccc(OC)c(OC)c3)C(=O)CC2(C(=O)OC)CC1=O (stereo not given)",
    "GI50": "18.2 µM (inactive)"
  },
  {
    "Compound": "Cc1cc2c(c(=O)n1C)SCC2",
    "GI50": "> 100 µM (inactive)"
  },
  {
    "Compound": "Cc1ccc(S(=O)(=O)NC(CCC(=O)NNc2ccccc2)C(=O)NNc2ccccc2)cc1 (stereo not given)",
    "GI50": "54.6 µM (inactive)"
  },
  {
    "Compound": "COC(=O)[C@@H]1C(=O)O[C@@H](c2cc(OC)c(OC)cc2OC)[C@@H]1C(=O)OC.COC(=O)[C@H]1C(=O)O[C@@H](c2cc(OC)c(OC)cc2OC)[C@@H]1C(=O)OC",
    "GI50": "> 100 µM (inactive)"
  },
  {
    "Compound": "C=C1CC(Cn2cc(Br)c(=O)[nH]c2=O)(c2ccc(Br)cc2)OC1=O (stereo not given)",
    "GI50": "3.34 µM (inactive)"
  }
]

Output reported GI50 of the compound `CCOC(=O)/C(Cl)=C(\C)Nc1nc2c(ccc3ccccc32)s1` on OVCAR-3.
46.8 µM (inactive)

Output reported GI50 of the compound `CSC(=O)/C=C1\SS/C(=C\C(=O)SC)S1` on OVCAR-3.
2.99 µM (inactive)

Output reported GI50 of the compound C[C@]12OC[C@H](c3ccccc3)N1C(=O)C1[C@H]2CC12SCCS2 (stereo not given in full) on OVCAR-3.
> 100 µM (inactive)

Output reported GI50 of the compound `O=C(CCNC(=O)OCc1ccccc1)OCCCNC(=O)OCc1ccccc1` on OVCAR-3.
> 100 µM (inactive)
